# experimental.target: T1, QP098 (cyno SIRPα (I7G9Z7) ECD(E31-R369)-flag-his) (cynomolgus)
# T1 construct: the construct carries flag and his tags; also called cynoSIRPα (ECD); cynomolgus SIRPα
# T1 chain: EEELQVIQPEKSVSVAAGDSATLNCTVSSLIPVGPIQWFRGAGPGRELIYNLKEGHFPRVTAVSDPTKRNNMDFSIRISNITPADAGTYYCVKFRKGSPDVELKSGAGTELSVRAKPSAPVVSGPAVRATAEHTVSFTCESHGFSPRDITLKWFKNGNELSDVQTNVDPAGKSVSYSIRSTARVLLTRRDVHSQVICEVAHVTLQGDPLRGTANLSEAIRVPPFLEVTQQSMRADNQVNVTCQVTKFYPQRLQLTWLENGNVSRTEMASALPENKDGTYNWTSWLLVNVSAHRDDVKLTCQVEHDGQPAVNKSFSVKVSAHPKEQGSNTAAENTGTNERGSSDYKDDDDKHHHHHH
# assay.notes: SPR, Biacore
value.kind: Kd (nM)
# unit: nM | format: bare number

Report Kd, nothing else, for this binder: QP2561770 (antibody, human IgG4, V domains shown, Human IgG4 heavy constant region and kappa CL) VH: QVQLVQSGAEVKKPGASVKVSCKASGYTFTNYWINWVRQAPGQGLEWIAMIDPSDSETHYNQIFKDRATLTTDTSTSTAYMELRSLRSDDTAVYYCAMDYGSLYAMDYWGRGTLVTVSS VL: DIVLTQSPDSLAVSLGERATINCRASQSVRSSGYNWIFWYQQKPGQPPKLLIYLASNRDSGVPDRFSGSGSGTDFTLTISSLQAEDVAVYYCQESRELPTFGQGTKLEIK
0.256
